Source: ChEMBL document CHEMBL1201861

Known pIC50 of a selection of compounds
# Test system: LN-405
# experimental-protocol: cells
# Assay type: functional, cell-based, Homo sapiens
# condition-summary: Homo sapiens, LN-405
# Description: SANGER: Inhibition of human LN-405 cell growth in a cell viability assay.
pIC50: −log10 of the molar value.

# compound, pIC50
data = [
    ("CC1(C)CNc2cc(NC(=O)c3cccnc3NCc3ccncc3)ccc21", "< 5.70"),
    ("CS(=O)(=O)c1ccc(C(=O)Nc2ccc(Cl)c(-c3ccccn3)c2)c(Cl)c1", "< 5.00"),
    ("Nc1cccc2c1CN(C1CCC(=O)NC1=O)C2=O (centres undefined) [LENALIDOMIDE]", "< 5.30"),
    ("COc1cccc2c1C(=O)c1c(O)c3c(c(O)c1C2=O)C[C@@](O)(C(=O)CO)C[C@@H]3O[C@H]1C[C@H](N)[C@H](O)[C@H](C)O1", "< 5.99"),
]

----------
Known IC50 of a selection of molecules
# Tested on: BOKU;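 further: growth inhibition of the human BOKU cell line, read out by a cell viability assay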
# experimental-protocol: cells
# Type: functional, cell-based, Homo sapiens
# condition-summary: Homo sapiens, BOKU
# Description: SANGER: Inhibition of human BOKU cell growth in a cell viability assay.
endpoint: IC50 (nM)

# molecule, endpoint, result-modifier, measured-result
data = [
    ("OCCCNc1cc(-c2ccnc(Nc3cccc(Cl)c3)n2)ccn1", "IC50", "=", 54.3),
    ("COc1cc(-c2nn([C@H]3CC[C@H](N4CCN(C(C)=O)CC4)CC3)c3ncnc(N)c23)ccc1NC(=O)c1cc2ccccc2n1C", "IC50", ">", 5120),
    ("N[C@@H](CSC(c1ccccc1)(c1ccccc1)c1ccccc1)C(=O)O", "IC50", ">", 5120),
    ("Nc1ccn([C@@H]2O[C@H](CO)[C@@H](O)C2(F)F)c(=O)n1", "IC50", "=", 254),
    ("COc1cc2ncn(-c3cc(OCc4ccccc4C(F)(F)F)c(C(N)=O)s3)c2cc1OC [GW843682X]", "IC50", "=", 135),
]

----------
# Tested on: NCI-H719;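 further: growth inhibition of the cultured cell line, read out with a viability assay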
# experimental-protocol: cells
# Assay type: functional, cell-based, Homo sapiens
# condition-summary: Homo sapiens, NCI-H719
# Description: SANGER: Inhibition of human NCI-H719 cell growth in a cell viability assay.
pIC50: −log10 of the molar value. Counter-ions that a name gives are not always drawn.

# compound, measured-target, result-modifier, pIC50
rows = [
    ("COC1=CC(c2cc3ccccc3[nH]2)=N/C1=C\\c1[nH]c(C)cc1C [OBATOCLAX MESYLATE]", "NCI-H719", "=", 5.38),
    ("C#Cc1cccc(Nc2ncnc3cc(OCCOC)c(OCCOC)cc23)c1 [ERLOTINIB]", "NCI-H719", "<", 5.70),
    ("Oc1ccc2ccccc2c1SSc1c(O)ccc2ccccc12", "NCI-H719", "=", 4.89),
    ("CCC/C=C/C=C/C(=O)O[C@H]1/C(=C/C(=O)OC)C[C@H]2C[C@H]([C@@H](C)O)OC(=O)C[C@H](O)C[C@@H]3C[C@H](OC(C)=O)C(C)(C)[C@](O)(C[C@@H]4C/C(=C/C(=O)OC)C[C@H](/C=C/C(C)(C)[C@]1(O)O2)O4)O3 [BRYOSTATIN 1]", "NCI-H719", "<", 8.10),
    ("Cc1ccc(-c2c(C(=O)CCl)n(CCCO)c3ncnc(N)c23)cc1", "NCI-H719", "<", 5.40),
]

----------
# Test system: TALL-1
# experimental-protocol: cells
# Assay type: functional, cell-based, Homo sapiens
# condition-summary: Homo sapiens, TALL-1
# Description: SANGER: Inhibition of human TALL-1 cell growth in a cell viability assay.
Structures can show the parent of a compound that is named as a salt.
Known IC50 of a selection of compounds

# compound, measured-target, IC50
measured = [
    ("CCN(CC)CCNC(=O)c1c(C)[nH]c(/C=C2\\C(=O)Nc3ccc(F)cc32)c1C [SUNITINIB]", "TALL-1", "> 8 µM"),
    ("COc1cc2ncn(-c3cc(OCc4ccccc4C(F)(F)F)c(C(N)=O)s3)c2cc1OC [GW843682X]", "TALL-1", "0.013 µM"),
    ("COc1cc(N2CCN(C)CC2)ccc1Nc1ncc2c(n1)N(C)c1ccccc1C(=O)N2C", "TALL-1", "> 8 µM"),
    ("C=C(c1ccc(C(=O)O)cc1)c1cc2c(cc1C)C(C)(C)CCC2(C)C [BEXAROTENE]", "TALL-1", "> 8 µM"),
    ("COC1=CC(c2cc3ccccc3[nH]2)=N/C1=C\\c1[nH]c(C)cc1C [OBATOCLAX MESYLATE]", "TALL-1", "> 16 µM"),
    ("COc1cc(-c2nn([C@H]3CC[C@H](N4CCN(C(C)=O)CC4)CC3)c3ncnc(N)c23)ccc1NC(=O)c1cc2ccccc2n1C", "TALL-1", "> 5.12 µM"),
    ("Cc1cc([N+](=O)[O-])ccc1NS(=O)(=O)c1cc(Cl)ccc1Cl", "TALL-1", "6.23 µM"),
]

----------
# System: KG-1
# experimental-protocol: cells
# Format: functional, cell-based, Homo sapiens
# condition-summary: Homo sapiens, KG-1
# Description: SANGER: Inhibition of human KG-1 cell growth in a cell viability assay.
pIC50: −log10 of the molar value. Counter-ions that a name gives are not always drawn.
Known pIC50 of a selection of compounds

# compound, result-modifier, pIC50
rows = [
    ("Cn1cnc2c(F)c(Nc3ccc(Br)cc3Cl)c(C(=O)NOCCO)cc21 [SELUMETINIB]", "=", 6.05),
    ("CC(C)CCN1c2nc(Nc3cc(F)c(O)c(F)c3)ncc2N(C)C(=O)C1C (stereo not given)", "=", 5.44),
    ("COc1cccc2c1C(=O)c1c(O)c3c(c(O)c1C2=O)C[C@@](O)(C(=O)CO)C[C@@H]3O[C@H]1C[C@H](N)[C@H](O)[C@H](C)O1 [DOXORUBICIN]", "=", 6.44),
    ("CCN(CC)CCCCNc1ncc2cc(-c3cc(OC)cc(OC)c3)c(NC(=O)NC(C)(C)C)nc2n1 [PD-173074]", "=", 7.29),
    ("COc1cc(N2CCN(C)CC2)ccc1Nc1ncc2c(n1)N(C)c1ccccc1C(=O)N2C", "<", 5.10),
    ("COC1=CC(c2cc3ccccc3[nH]2)=N/C1=C\\c1[nH]c(C)cc1C [OBATOCLAX MESYLATE]", "=", 6.48),
    ("Cc1cn(-c2cc(NC(=O)c3ccc(C)c(Nc4nccc(-c5cccnc5)n4)c3)cc(C(F)(F)F)c2)cn1 [NILOTINIB]", "<", 5.70),
    ("CS(=O)(=O)c1ccc(C(=O)Nc2ccc(Cl)c(-c3ccccn3)c2)c(Cl)c1 [VISMODEGIB]", "<", 5.00),
    ("COc1cc(-c2nn([C@H]3CC[C@H](N4CCN(C(C)=O)CC4)CC3)c3ncnc(N)c23)ccc1NC(=O)c1cc2ccccc2n1C", "<", 5.29),
    ("Oc1ccc2ccccc2c1SSc1c(O)ccc2ccccc12", "<", 4.49),
]

----------
# Tested on: D-502MG
# experimental-protocol: cells
# Type: functional, cell-based, Homo sapiens
# condition-summary: Homo sapiens, D-502MG
# Description: SANGER: Inhibition of human D-502MG cell growth in a cell viability assay.
pIC50: −log10 of the molar value.
Known pIC50 of a selection of molecules

# molecule, pIC50
records = [
    ("COc1cc2ncn(-c3cc(OCc4ccccc4C(F)(F)F)c(C(N)=O)s3)c2cc1OC [GW843682X]", "< 6.59"),
    ("O=C(O)c1ccc(-c2c[nH]c3ncc(-c4ccccc4)cc23)cc1C1CCCC1", "< 4.80"),
    ("CC(C)CCN1c2nc(Nc3cc(F)c(O)c(F)c3)ncc2N(C)C(=O)C1C (centres undefined)", 5.51),
    ("CCN(CC)CCCCNc1ncc2cc(-c3cc(OC)cc(OC)c3)c(NC(=O)NC(C)(C)C)nc2n1", "< 5.70"),
]

----------
Known pIC50 of a selection of sequences
# Tested on: MKN-45;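 further: growth inhibition of human MKN-45 cells, measured with a cell viability assay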
# experimental-protocol: cells
# Assay type: functional, cell-based, Homo sapiens
# condition-summary: mkn-45
# Description: SANGER: Inhibition of human MKN45 cell growth in a cell viability assay.
pIC50: −log10 of the molar value.

# chain-sequence, pIC50
records = [
    ("CISPLATIN", 4.54),
    ("BLEOMYCIN", 7.61),
]

----------
# Test system: ETK-1;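 further: growth inhibition of human ETK-1 cells, read out with a cell viability assay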
# experimental-protocol: cells
# Assay type: functional, cell-based, Homo sapiens
# condition-summary: Homo sapiens, ETK-1
# Description: SANGER: Inhibition of human ETK-1 cell growth in a cell viability assay.
pIC50: −log10 of the molar value. Where a name gives a salt, the structure may show the parent alone.
Known pIC50 of a selection of compounds

# compound, result-modifier, pIC50
measured = [
    ("CO[C@H]1C[C@@H]2CC[C@@H](C)[C@@](O)(O2)C(=O)C(=O)N2CCCC[C@H]2C(=O)O[C@H]([C@H](C)C[C@@H]2CC[C@@H](OC(=O)C(C)(CO)CO)[C@H](OC)C2)CC(=O)[C@H](C)/C=C(\\C)[C@@H](O)[C@@H](OC)C(=O)[C@H](C)C[C@H](C)/C=C/C=C/C=C/1C", "=", 7.50),
    ("COC1=CC(c2cc3ccccc3[nH]2)=N/C1=C\\c1[nH]c(C)cc1C [OBATOCLAX MESYLATE]", "=", 7.25),
    ("Cc1ccc(-c2c(C(=O)CCl)n(CCCO)c3ncnc(N)c23)cc1", "<", 5.40),
    ("O=C(O)c1ccc(-c2c[nH]c3ncc(-c4ccccc4)cc23)cc1C1CCCC1", "=", 4.99),
]
